Assay: Pharmacokinetics after intravenous administration
Settings: C57BL/6, mouse, whole blood, 10 mg/kg
Square brackets hold non-standard residues; d marks the D form. Peptide text beside a SMILES is read from it.
Metric Name: MRT last
Note to self: number, then unit, no commentary.

Data request, read-out MRT last, for CC(C)C[C@@H]1NC(=O)[C@H](CCCNC(=N)N)NC(=O)[C@H](C(C)C)NC(=O)[C@@H]2CCCN2C(=O)[C@@H](Cc2ccccc2)NC(=O)[C@H](CC(C)C)NC(=O)[C@H](CCCNC(=N)N)NC(=O)[C@H]([C@@H](C)O)NC(=O)[C@H](C)NC(=O)[C@@H](Cc2ccccc2)NC1=O [XQ2B] (cyclo([dF]ATRL[dF]PVRL))
1.2 h

====

Assay: in vivo
Conditions: C57BL/6, mouse, iv, 10 mg/kg, Conc (ng/ml), Fig. S11a
Square brackets hold non-standard residues; d marks the D form. Peptide text beside a SMILES is read from it.
Metric Name: level at 0.5 h
Note to self: number, then unit, no commentary.

Data request, read-out level at 0.5 h, for CC(C)C[C@@H]1NC(=O)[C@H](CCCNC(=N)N)NC(=O)[C@H](C(C)C)NC(=O)[C@@H]2CCCN2C(=O)[C@@H](Cc2ccccc2)NC(=O)[C@H](CC(C)C)NC(=O)[C@H](CCCNC(=N)N)NC(=O)[C@H]([C@@H](C)O)NC(=O)[C@H](C)NC(=O)[C@@H](Cc2ccccc2)NC1=O [XQ2B] (cyclo([dF]ATRL[dF]PVRL))
50.4 µg/mL

====

Test: Cell viability (CCK-8), cytotoxicity
Details: human, THP1 cells, Cell viability (Fig. S7a), XQ2 40000 nM
Square brackets hold non-standard residues; d marks the D form. Peptide text beside a SMILES is read from it.
Metric Name: viability at 48 h, 40 µM (%)
Number in %, nothing else.

Data request, read-out viability at 48 h, 40 µM, for CC(C)C[C@@H]1NC(=O)[C@H](CCCNC(=N)N)NC(=O)[C@H](C(C)C)NC(=O)[C@@H]2CCCN2C(=O)[C@@H](Cc2ccccc2)NC(=O)[C@H](CC(C)C)NC(=O)[C@H](CCCNC(=N)N)NC(=O)[C@H](C(C)C)NC(=O)[C@H](C)NC(=O)[C@@H](Cc2ccccc2)NC1=O [XQ2, Cyclo (LfAVRLfPVR)] (cyclo(L[dF]AVRL[dF]PVR))
4.01

====

Test: in vitro
Conditions: mouse, RAW264.7 cells, Cell viability (Fig. S2e), RAW264.7 (48h), XQ2 1.25 μM
Method: Cell viability was measured by cell counting kit-8 (TargetMol) according to the manufacturer’s instructions. […] (e-g) THP1 cells (e), L929 cells (f) and RAW264.7 cells (g) were exposed to the indicated doses of XQ2 for 48h, the cell viability was measured by CCK8 assay. Data are representative of three independent experiments in (a-g). (Data are presented as mean ± SD, n = 3 independent samples in (a-g), **p < 0.01, ***p < 0.001, ****p < 0.0001 using one-way ANOVA with Dunnett’s post hoc test). […]
Square brackets hold non-standard residues; d marks the D form. Peptide text beside a SMILES is read from it.
Metric Name: viability at 48 h, 1.25 µM (%)
Number in %, nothing else.

Data request, read-out viability at 48 h, 1.25 µM, for CC(C)C[C@@H]1NC(=O)[C@H](CCCNC(=N)N)NC(=O)[C@H](C(C)C)NC(=O)[C@@H]2CCCN2C(=O)[C@@H](Cc2ccccc2)NC(=O)[C@H](CC(C)C)NC(=O)[C@H](CCCNC(=N)N)NC(=O)[C@H](C(C)C)NC(=O)[C@H](C)NC(=O)[C@@H](Cc2ccccc2)NC1=O [XQ2, Cyclo (LfAVRLfPVR)] (cyclo(L[dF]AVRL[dF]PVR))
104

These data points were gathered from paper PMC10545747.
